Please go through the items and note down their remaining at 0.25 h, 1 µM.
- protocol_details: Metabolic stability in mouse liver mirosomes assessed as compound remaining at 1 uM after 15 mins by LC-MS/MS analysis
- Format: ADME, tissue-based
- assay_context: liver microsomes, read-out: Stability
Response body: numeric value in %, unit text excluded.

Recorded remaining at 0.25 h, 1 µM (compound Cc1c(CN(C)C(=O)/C=C/c2cnc3c(c2)CCC(=O)N3)oc2ccccc12 [AFN-1252] ): 55.4

Recorded remaining at 0.25 h, 1 µM (compound Cc1c(C2CN(C(=O)/C=C/c3cnc4c(c3)CNCC(=O)N4)C2)oc2ccccc12 ): 96.2

Recorded remaining at 0.25 h, 1 µM (compound Cc1c(C2CN(C(=O)/C=C/c3cnc4c(c3)CN(C)CC(=O)N4)C2)oc2ccccc12 ): 25.6
